Value source: patent US7244756B2

Assay: Pharmacokinetic parameters in rats (i.v. and p.o. dosing, plasma LC-MS/MS)
Format: in vivo, male Wistar rats
Settings: male, Wistar, plasma, po; rat, p.o. 30 mg/kg, time-points 3–24 h (Ref. Cpd.), 2–24 h (Cpd. 1); read-out: T1/2 (p.o.) (converted)
ENDPOINT_NAME: half-life (min)

[[record]]
compound = "O=c1[nH]c2cc(C(F)(F)F)ccc2n1-c1cc(C(F)(F)F)ccc1O [Reference Compound]"
result_value = 150

[[record]]
compound = "O=c1[nH]c2cc(Cl)ccc2n1-c1cc(Cl)ccc1O"
result_value = 192


###

Experiment: Pharmacokinetic parameters in rats (i.v. and p.o. dosing, plasma LC-MS/MS)
Format: in vivo, male Wistar rats
Conditions: male, Wistar, plasma, po; rat, p.o. 30 mg/kg
ENDPOINT_NAME: Tmax (h)

(I) O=c1[nH]c2cc(C(F)(F)F)ccc2n1-c1cc(C(F)(F)F)ccc1O [Reference Compound]
(II) O=c1[nH]c2cc(Cl)ccc2n1-c1cc(Cl)ccc1O
Lab notebook, comparison: I versus II , higher Tmax goes to which? Reply briefly: the label of your chosen item. I
(I: 3 h, II: 0.5 h)

###

Assay: Pharmacokinetic parameters in rats (i.v. and p.o. dosing, plasma LC-MS/MS)
Assay type: in vivo, male Wistar rats
Conditions: male, Wistar, rat, plasma
ENDPOINT_NAME: Vd (L/kg)

(a) O=c1[nH]c2cc(Cl)ccc2n1-c1cc(Cl)ccc1O
(b) O=c1[nH]c2cc(C(F)(F)F)ccc2n1-c1cc(C(F)(F)F)ccc1O [Reference Compound]
Could you determine which record has the numerically smaller Vd? Candidates: a and b Reply briefly: the label of your chosen item. b
(b: 1.1 L/kg, a: 1.9 L/kg)

###

Assay: Pharmacokinetic parameters in rats (i.v. and p.o. dosing, plasma LC-MS/MS)
Format: in vivo, male Wistar rats
Settings: male, Wistar, plasma, po; rat, p.o. 30 mg/kg, i.v. 3 mg/kg
ENDPOINT_NAME: bioavailability (%)

(A) O=c1[nH]c2cc(C(F)(F)F)ccc2n1-c1cc(C(F)(F)F)ccc1O [Reference Compound]
(B) O=c1[nH]c2cc(Cl)ccc2n1-c1cc(Cl)ccc1O
Could you determine which record has the numerically smaller bioavailability? Candidates: A and B Reply briefly: the label of your chosen item. B

###

Experiment: Pharmacokinetic parameters in rats (i.v. and p.o. dosing, plasma LC-MS/MS)
Assay type: in vivo, male Wistar rats
Conditions: male, Wistar, plasma, po; rat, p.o. 30 mg/kg
ENDPOINT_NAME: Cmax (ng/mL)

(A) O=c1[nH]c2cc(C(F)(F)F)ccc2n1-c1cc(C(F)(F)F)ccc1O [Reference Compound]
(B) O=c1[nH]c2cc(Cl)ccc2n1-c1cc(Cl)ccc1O
Lab notebook, comparison: A versus B , higher Cmax goes to which? Reply briefly: the label of your chosen item. A
(A: 10000 ng/mL, B: 4200 ng/mL)
